# assay.remarks: Stability of cannabinoid and Vitamin E components of Beverage 1 (AB White) stored at 8° C. and 21-25° C., LCMSMS over 570 days
# Assay type: physicochemical
# cond: beverage stored at 8° C., day 330
measured.parameter: Stability in AB White, 8° C. (content by LCMSMS)

>  <compound>
CCCCCc1cc(O)c(C/C=C(\C)CCC=C(C)C)c(O)c1

>  <value.measured>
4.69 µg/mL

$$$$
>  <compound>
CCCCCc1cc(O)c2c(c1)OC1(C)CCC3C1C2C3(C)C (stereo not shown)

>  <value.measured>
0.543 µg/mL

$$$$
>  <compound>
C=C(C)[C@@H]1CCC(C)=C[C@H]1c1c(O)cc(CCCCC)c(C(=O)O)c1O

>  <value.measured>
1.70 µg/mL

$$$$
>  <compound>
CCCCCc1cc2c(c(O)c1C(=O)O)[C@@H]1C=C(C)CC[C@H]1C(C)(C)O2 [D9 THCA, delta-9-tetrahydrocannabinolic acid]

>  <value.measured>
0.909 µg/mL

$$$$
>  <compound>
CCCCCc1cc(O)c2c(c1)OC(C)(C)[C@@H]1CCC(C)=C[C@@H]21 [D9 THC, delta-9-tetrahydrocannabinol, reference compound]

>  <value.measured>
11.68 µg/mL

$$$$
>  <compound>
CCCCCc1cc(O)c2c(c1)OC(C)(CCC=C(C)C)C=C2 (stereo not shown)

>  <value.measured>
0.316 µg/mL

$$$$
>  <compound>
C=C(C)[C@@H]1CCC(C)=C[C@H]1c1c(O)cc(CCCCC)cc1O [CBD, cannabidiol, reference compound]

>  <value.measured>
27.33 µg/mL

$$$$
>  <compound>
C=C(C)[C@@H]1CCC(C)=C[C@H]1c1c(O)cc(CCC)cc1O

>  <value.measured>
0.146 µg/mL

$$$$
>  <compound>
CCCc1cc(O)c2c(c1)OC(C)(C)[C@@H]1CCC(C)=C[C@@H]21 [THCV, delta-9-tetrahydrocannabivarin]

>  <value.measured>
3.52 µg/mL

$$$$
>  <compound>
CCCCCc1cc(O)c2c(c1)OC(C)(C)c1ccc(C)cc1-2

>  <value.measured>
2.75 µg/mL

$$$$

###

# Assay type: physicochemical
# cond: stored at room temperature (21-25° C.), day 25
# Stability in Powder Concentrate (content by LCMSMS) annotations
measured.parameter: Stability in Powder Concentrate (content by LCMSMS) (mg/g powder)

>  <compound>
CCCCCc1cc(O)c2c(c1)OC(C)(C)c1ccc(C)cc1-2

>  <measure.unit>
mg/g powder

>  <value.measured>
0.486

$$$$
>  <compound>
CCCCCc1cc(O)c(C/C=C(\C)CCC=C(C)C)c(O)c1

>  <measure.unit>
mg/g powder

>  <value.measured>
1.13

$$$$
>  <compound>
CCCCCc1cc(O)c2c(c1)OC1(C)CCC3C1C2C3(C)C (stereo not drawn)

>  <measure.unit>
mg/g powder

>  <value.measured>
0.050

$$$$
>  <compound>
CCCCCc1cc2c(c(O)c1C(=O)O)[C@@H]1C=C(C)CC[C@H]1C(C)(C)O2 [D9 THCA, delta-9-tetrahydrocannabinolic acid]

>  <measure.unit>
mg/g powder

>  <value.measured>
0.150

$$$$
>  <compound>
CC(=O)Oc1c(C)c(C)c2c(c1C)CCC(C)(CCC[C@H](C)CCC[C@H](C)CCCC(C)C)O2 (stereo partly drawn) [α-Tocopheryl acetate]

>  <measure.unit>
mg/g powder

>  <value.measured>
2.24

$$$$
>  <compound>
Cc1c(C)c2c(c(C)c1O)CC[C@@](C)(CCC[C@H](C)CCC[C@H](C)CCCC(C)C)O2

>  <measure.unit>
mg/g powder

>  <value.measured>
5.06

$$$$
